In this section, each of the compounds is paired with its reported with ACA 6501 150 ug/mL.
system-under-test: ACA-6501
assay-text: Competitive binding peptide ACA ELISA, cardiolipin/β2-GPI-coated plates
Design: species or system human
condition-label: Optimization of Peptide 3G3; inf = no 50% inhibition
Description: A variation of this assay uses microtitration plates coated with human β2-glycoprotein I/cardiolipin (β2-GPI/CL) instead of tetravalent peptide and tests the ability of monomeric peptides to block the binding of aPL antibody to the epitope(s) on β2-GPI/CL. In this assay, IgG-depleted human serum at an optimized concentration is used as a source of β2-GPI. […]
Bridge positions count the residues as written; N and C are the ends. Square brackets hold non-standard residues; d marks the D form. Peptide text beside a SMILES is read from it. Orn = NCCC[C@H](N)C(=O)O; Aib = CC(C)(N)C(=O)O

Example cases with answers are listed next.
CC(C)C[C@@H]1NC(=O)[C@H](CCCCN)NC(=O)CNC(=O)[C@H](CC(C)C)NC(=O)[C@H](C(C)C)NC(=O)CNC(=O)CNC(=O)[C@@H](N)CSSC[C@@H](C(=O)O)NC1=O [C G G V L G K L C] (H-CGGVLGKLC-OH; disulfide 1-9) : 310 µg/mL
CC(C)C[C@@H]1NC(=O)[C@H](C(C)C)NC(=O)CNC(=O)[C@H](CC(C)C)NC(=O)[C@@H](N)CSSC[C@@H](C(=O)O)NC(=O)C(C)(C)NC(=O)[C@H](CCCCN)NC(=O)CNC1=O [C L G V L G K aiB C] (H-CLGVLGK[Aib]C-OH; disulfide 1-9) : >470 µg/mL
CC(C)C[C@@H]1NC(=O)[C@H](CCCCN)NC(=O)CNC(=O)[C@H](CC(C)C)NC(=O)[C@H](C(C)C)NC(=O)CNC(=O)C(C)(C)NC(=O)[C@@H](N)CSSC[C@@H](C(=O)O)NC1=O [C aiB G V L G K L C] (H-C[Aib]GVLGKLC-OH; disulfide 1-9) : 370 µg/mL

Now consider the entry below.
Recorded with ACA 6501 150 ug/mL for CC(C)C[C@@H]1NC(=O)[C@H](CCCN)NC(=O)CNC(=O)[C@H](CC(C)C)NC(=O)[C@H](C(C)C)NC(=O)CNC(=O)[C@H](CC(C)C)NC(=O)[C@@H](N)CSSC[C@@H](C(=O)O)NC1=O [C L G V L G Or L C] (H-CLGVLG[Orn]LC-OH; disulfide 1-9) on ACA-6501 was 40 µg/mL

Origin of values: patent US20040009904A1
